ASSAYED TARGET: CYP1A2 (Homo sapiens, UniProt P05177)
Sequence (P05177 whole entry): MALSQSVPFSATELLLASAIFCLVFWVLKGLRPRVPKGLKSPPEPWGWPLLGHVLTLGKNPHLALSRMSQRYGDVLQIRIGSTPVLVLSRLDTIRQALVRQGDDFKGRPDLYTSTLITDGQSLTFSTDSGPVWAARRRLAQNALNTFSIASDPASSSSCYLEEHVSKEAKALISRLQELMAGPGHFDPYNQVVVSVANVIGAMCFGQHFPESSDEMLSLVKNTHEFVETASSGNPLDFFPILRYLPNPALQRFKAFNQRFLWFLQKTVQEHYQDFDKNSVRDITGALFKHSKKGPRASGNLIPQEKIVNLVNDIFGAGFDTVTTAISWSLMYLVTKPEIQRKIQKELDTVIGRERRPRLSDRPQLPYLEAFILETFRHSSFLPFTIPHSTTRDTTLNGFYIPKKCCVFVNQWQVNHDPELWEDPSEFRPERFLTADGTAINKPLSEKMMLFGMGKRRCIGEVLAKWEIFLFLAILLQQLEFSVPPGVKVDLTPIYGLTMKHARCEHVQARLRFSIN
ASSAY: Inhibition of CYP1A2 in human liver microsomes at 10 uM preincubated for 10 mins followed by NADPH addition measured after 10 mins by LC-MS/MS analysis
Type: ADME
VALUE KIND: inhibition at 10 min, 10 µM (%)

CPD SMILES	inhibition at 10 min, 10 µM / %
Cc1cc(-c2ccc(CNC(=O)c3ccc4c(c3)[nH]c3ccccc34)cc2)ccn1	64
Cc1cc(-c2ncc(CNC(=O)c3ccc4c(c3)[nH]c3ccccc34)cc2F)ccn1	73

* * *

ASSAYED TARGET: CYP3A4 (Homo sapiens, UniProt P08684)
Sequence (P08684 whole entry): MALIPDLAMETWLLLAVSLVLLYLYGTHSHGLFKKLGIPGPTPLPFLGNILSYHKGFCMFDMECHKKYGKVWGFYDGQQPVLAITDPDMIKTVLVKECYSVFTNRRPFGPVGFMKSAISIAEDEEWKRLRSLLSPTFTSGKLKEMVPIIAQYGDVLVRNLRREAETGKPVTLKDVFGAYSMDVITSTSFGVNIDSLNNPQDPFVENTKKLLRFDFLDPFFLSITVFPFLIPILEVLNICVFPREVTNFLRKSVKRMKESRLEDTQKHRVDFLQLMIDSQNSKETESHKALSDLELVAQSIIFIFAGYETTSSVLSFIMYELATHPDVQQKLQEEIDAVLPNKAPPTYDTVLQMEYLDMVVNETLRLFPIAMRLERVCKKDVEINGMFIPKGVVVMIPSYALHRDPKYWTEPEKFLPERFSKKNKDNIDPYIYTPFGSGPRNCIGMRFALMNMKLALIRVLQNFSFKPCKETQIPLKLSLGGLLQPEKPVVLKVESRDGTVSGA
ASSAY: Inhibition of CYP3A4 in human liver microsomes at 10 uM using midazolam as substrate preincubated for 10 mins followed by NADPH addition measured after 10 mins by LC-MS/MS analysis
Format: ADME
STATED CONDITIONS: probe midazolam
VALUE KIND: inhibition at 10 min, 10 µM (%)

P: Cc1cc(-c2ccc(CNC(=O)c3ccc4c(c3)[nH]c3ccccc34)cc2)ccn1
Q: Cc1cc(-c2ncc(CNC(=O)c3ccc4c(c3)[nH]c3ccccc34)cc2F)ccn1
query: For the two items P and Q , which reports the higher inhibition at 10 min, 10 µM value? Give the chosen item's label as your response.
result: Q
(Q: 69%, P: 7%)

* * *

ASSAY: Metabolic stability in rat plasma assessed as remaining compound levels at 1 uM after 8 hrs by LC-MS/MS analysis
Type: ADME, cell-free
STATED CONDITIONS: read-out: Stability
VALUE KIND: remaining at 8 h, 1 µM (%)

CPD SMILES	ENDPOINT RESULT
Cc1cc(-c2ccc(CNC(=O)c3ccc4c(c3)[nH]c3ccccc34)cc2)ccn1	100
Cc1cc(-c2ncc(CNC(=O)c3ccc4c(c3)[nH]c3ccccc34)cc2F)ccn1	100
Cc1cc(-c2ncc(CC(=O)Nc3ccc(-c4cnccn4)cn3)cc2C)ccn1	100

* * *

ASSAY: Half life in mouse liver microsomes at 1 uM preincubated for 10 mins followed by NADPH addition measured for 30 to 60 mins by LC-MS/MS analysis
Format: ADME
VALUE KIND: half-life at 1 µM (min)

CPD SMILES	ENDPOINT RESULT
Cc1cc(-c2ccc(CNC(=O)c3ccc4c(c3)[nH]c3ccccc34)cc2)ccn1	43

A: Cc1cc(-c2ncc(CC(=O)Nc3ccc(-c4cnccn4)cn3)cc2C)ccn1
B: Cc1cc(-c2ncc(CNC(=O)c3ccc4c(c3)[nH]c3ccccc34)cc2F)ccn1
query: For the two items A and B , which reports the higher half-life at 1 µM value? Give the chosen item's label as your response.
result: A
(A: 277 min, B: 55 min)
